Molecular target: Proprotein convertase subtilisin/kexin type 9 (Homo sapiens)
Experiment: Inhibition of human C-terminal V5 epitope tagged PCSK9 by luciferase reporter assay
OBSERVABLE: IC50 (nM)

>  <COMPOUND>
O=C(c1ccc(-n2nnc3ccccc32)cc1)N(c1ncccc1Cl)[C@@H]1CCCNC1

>  <OBSERVABLE>
IC50

>  <OBSERVED_MEASUREMENT>
300

$$$$

(A) O=C(c1ccc(-c2cnn3cccnc23)cc1)N(c1ncccc1Cl)[C@@H]1CCCNC1 [US9227956, 2]
(B) COc1ccc(CCC(=O)N(c2nccc3ccccc23)[C@@H]2CCCNC2)cc1
Return label of the item with the larger IC50. Candidates: A , B . Lab log: write the label of the selected item as the result. B
